experiment: APR_HepG2_MitoticArrest_24hr: Apredica 24-hour HepG2 Assay for Mitotic Arrest (AID 2282910); conditions: high-content imaging, actives raise or lower the signal
Active and inactive are the calls of the source. The calls were made as follows: active = hit-call score of the fitted dose curve at least 0.9, where 1 is the maximum; inactive = score below 0.9.
Classes used: active, inactive

{"columns": ["SAMPLE_SMILES", "QUALITATIVE_LABEL"],
 "data": [
  ["Cc1ccc(O)c(C)c1", "inactive"],
  ["Oc1ccc(C(c2ccc(O)cc2)(C(F)(F)F)C(F)(F)F)cc1", "inactive"],
  ["Cc1cccc([N+](=O)[O-])c1", "inactive"],
  ["Cc1cc(-c2ccc(N)c(C)c2)ccc1N", "inactive"],
  ["CCNc1nc(NC(C)C)nc(SC)n1", "inactive"],
  ["COS(=O)(=O)OC", "inactive"],
  ["Cc1ccccc1CO[C@@H]1C[C@@]2(C(C)C)CC[C@]1(C)O2", "inactive"],
  ["CCOP(=S)(OCC)SCSC(C)(C)C", "inactive"],
  ["Clc1ccc(C(Cl)(Cl)Cl)cc1", "inactive"],
  ["C=CC(N)=O", "inactive"],
  ["ClC1=C(Cl)[C@]2(Cl)[C@@H]3[C@H]4C[C@H]([C@@H]5O[C@H]45)[C@@H]3[C@@]1(Cl)C2(Cl)Cl", "inactive"],
  ["ClC(Cl)=C(c1ccc(Cl)cc1)c1ccc(Cl)cc1", "active"],
  ["Nn1cnnc1", "inactive"],
  ["CCOCCOC(C)=O", "inactive"],
  ["O=C(O)C(F)(F)C(F)(F)C(F)(F)C(F)(F)C(F)(F)C(F)(F)C(F)(F)C(F)(F)C(F)(F)F", "active"],
  ["CC(C)(O)C(=O)Nc1ccc([N+](=O)[O-])c(C(F)(F)F)c1", "inactive"],
  ["Nc1ccc(-c2ccc(N)cc2)cc1", "inactive"],
  ["O=C(NC(=O)c1c(F)cccc1F)Nc1cc(Cl)c(OC(F)(F)C(F)F)c(Cl)c1", "inactive"]
]}
